Measured Target: GLP-1 receptor (UniProt P43220 24-463, limits assumed)
Assay Procedure: cell-based or functional assay
*1 amine or outer side, *2 acyl side, *3 side chain or, on linkers, in order; H or OH if unused. Bridges are numbered along the chain shown (N, C = ends). Where no end group is shown, it is not given here. Side-chain parts run from the residue outwards. [ ]: non-standard residue; d: D form. The star is where a group is joined. Cys(PEG 40 kDa) = Cys with a 40 kDa PEG covalently attached to its side chain (alpha amino acetyl-capped, Ac); γGlu = O=C(O)[C@H](CCC(=O)[*:2])N[*:1]; Palmitoyl = CCCCCCCCCCCCCCCC(=O)*; Myristoyl = CCCCCCCCCCCCCC(=O)*; PEG = not defined here; Aib = CC(C)(N)C(=O)O
Measurement Type: EC50, nM; GLP-1 Receptor (nM)
Please state the figure in nM; there is no need to write the unit.

Here is how some binders turned out for EC50, nM; GLP-1 Receptor.
- Binder: "YXEGTFTSDYSIYLDKQAAXEFVNWLLAGGPSSGAPPPSKC (C-terminal amide; acylation at position 40 of each monomer, no spacer; monomers linked via a PEG at C-terminal Cys residues) [mt-376]"
  EC50, nM; GLP-1 Receptor, nM: 0.0106
- Binder: "YXEGTFTSDYSIYLDKQAAXEFVNWLLAGGPSSGAPPPSKC (C-terminal amide; acylation at position 40 of each monomer, no spacer; monomers linked via a PEG at C-terminal Cys residues) [mt-377]"
  EC50, nM; GLP-1 Receptor, nM: 0.0076
- Binder: "Y[Aib]EGTFTSDYSIYLDKQAA[Aib]EFVNWLLAGGPSSGAPPPSK([γGlu-γGlu-Palmitoyl])-NH2 [mt-367]"
  EC50, nM; GLP-1 Receptor, nM: 0.0039
- Binder: "Y[Aib]EGTFTSDYSIYLDEQAAKEFVNWLLAGGPSSGAPPPSC(PEG)-NH2 (lactam 16-20; reading uncertain; also: PEG on Cys40 via thioether from haloacetyl) [mt-294]"
  EC50, nM; GLP-1 Receptor, nM: 0.0608
- Binder: "Y[Aib]EGTFTSDYSIYLDKQAA[Aib]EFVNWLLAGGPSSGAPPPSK(Myristoyl)C-NH2 (also: homodimer: two monomers linked by a disulfide bond between their C-terminal Cys41 residues) [mt-354]"
  EC50, nM; GLP-1 Receptor, nM: 0.0088

Okay, now this binder:
EC50, nM; GLP-1 Receptor recorded for this binder, Y[Aib]QGTFTSDYSIYLDEQAAKEFVNWLLAGGPSSGAPPPSK([Ala-Cys(PEG 40 kDa)-Ac])-NH2 (lactam 16-20) [mt-225] , is 0.098
